Source listed as patent US4526989A.

test system: lymphocytic leukemia P388; test: Lymphocytic leukemia P388 test (intraperitoneal administration); format: in vivo, DBA/2 mice; details: 12.5 mg./kg. i.p., days 1, 5 and 9
quantityName: Median Survival Time (days)
Answer in days, number only, no unit symbol.

Reference set, count: 5
{"columns": ["compound", "Median Survival Time (days)"],
 "data": [
  ["CC(O)CNCCNc1ccc(NCCNCC(C)O)c2c1C(=O)c1c(O)ccc(O)c1C2=O.Cl.Cl (centres unmarked)", 24.0],
  ["Cl.Cl.O=C1c2c(O)ccc(O)c2C(=O)c2c(NCCN(CCO)CCO)ccc(NCCN(CCO)CCO)c21", 18.5],
  ["CNCCNc1ccc(NCCNC)c2c1C(=O)c1c(O)ccc(O)c1C2=O.Cl.Cl", 16.0],
  ["O=C1C2=C(NCCN3CCNCC3)CCC(NCCN3CCNCC3)=C2C(=O)c2c(O)ccc(O)c21", 14.0],
  ["CNCCNCCNc1ccc(NCCNCCNC)c2c1C(=O)c1c(O)ccc(O)c1C2=O.Cl.Cl.Cl.Cl", 17.0]
]}

Median Survival Time reading for O=C1C2=C(NCCNCCO)CCC(NCCNCCO)=C2C(=O)c2c(O)ccc(O)c21 : 23.5

Median Survival Time reading for Cl.Cl.NCCNc1ccc(NCCN)c2c1C(=O)c1c(O)ccc(O)c1C2=O : 8.0

Median Survival Time reading for CNCCNCCNC1=C2C(=O)c3c(O)ccc(O)c3C(=O)C2=C(NCCNCCNC)CC1 : 16.0

Median Survival Time reading for CC(O)CNCCNC1=C2C(=O)c3c(O)ccc(O)c3C(=O)C2=C(NCCNCC(C)O)CC1 (centres unmarked) : 21.5

Median Survival Time reading for CC(CNC1=C2C(=O)c3c(O)ccc(O)c3C(=O)C2=C(NCC(C)N(C)C)CC1)N(C)C (centres unmarked) : 11.0

Median Survival Time reading for Cl.Cl.O=C1c2c(O)ccc(O)c2C(=O)c2c(NCCNCCO)ccc(NCCNCCO)c21 : 13.0

* * *

The entries below come with measured Median Survival Time values attached.
Test system: lymphocytic leukemia P388
Test: Lymphocytic leukemia P388 test (intraperitoneal administration)
Assay type: in vivo, DBA/2 mice
Conditions: 0.19 mg./kg. i.p., days 1, 5 and 9
Method: The animals used are DBA/2 mice all of one sex, weighing a minimum of 17 g. and all within a 3 gram weight range. There are 5 or 6 animals per test group. The tumor transplant is by intraperitoneal injection of 0.1 ml. of dilute ascitic fluid containing 10^6 cells of lymphocytic leukemia P388. […] The animals are weighed and survivors are recorded on a regular basis for 30 days. The median survival time and the ratio of survival time for treated (T)/control (C) animals are calculated.
Answer in days, number only, no unit symbol.

Median Survival Time reading for CNCCNc1ccc(NCCNC)c2c1C(=O)c1c(O)ccc(O)c1C2=O.Cl.Cl : 18.5

Median Survival Time reading for Cl.Cl.O=C1c2c(O)ccc(O)c2C(=O)c2c(NCCNCCO)ccc(NCCNCCO)c21 : 25.0

Median Survival Time reading for Cl.Cl.NCCNc1ccc(NCCN)c2c1C(=O)c1c(O)ccc(O)c1C2=O : 23.0

Median Survival Time reading for O=C1C2=C(NCCNCCO)CCC(NCCNCCO)=C2C(=O)c2c(O)ccc(O)c21 : 21.5

* * *

The entries below come with measured Median Survival Time values attached.
tested on: lymphocytic leukemia P388; assay: Lymphocytic leukemia P388 test (intraperitoneal administration); type: in vivo, DBA/2 mice; conditions: 0.78 mg./kg. i.p., days 1, 5 and 9
Answer in days, number only, no unit symbol.

Reference set, count: 4
{"columns": ["compound", "Median Survival Time / days"],
 "data": [
  ["Cl.Cl.O=C1c2c(O)ccc(O)c2C(=O)c2c(NCCN(CCO)CCO)ccc(NCCN(CCO)CCO)c21", 14.5],
  ["Cl.Cl.NCCNc1ccc(NCCN)c2c1C(=O)c1c(O)ccc(O)c1C2=O", 24.5],
  ["O=C1C2=C(NCCNCCCO)CCC(NCCNCCCO)=C2C(=O)c2c(O)ccc(O)c21", 18.0],
  ["Cl.Cl.O=C1c2c(O)ccc(O)c2C(=O)c2c(NCCCNCCO)ccc(NCCCNCCO)c21", 15.0]
]}

Median Survival Time reading for CC(O)CNCCNc1ccc(NCCNCC(C)O)c2c1C(=O)c1c(O)ccc(O)c1C2=O.Cl.Cl (centres unmarked) : 19.0
